src = paper PMC3656107

# target system: MHC-II DRB1*04:01 (Homo sapiens, UniProt P01903+P01911, A100K/A169T/F76Y/I96L/K127E/L162R/M171V/N62H/P40V/Q125Y/R42H/S133A/S149N/S66Y/V115G/V209L/W38E)
# experiment notes: Cell-free REVEAL class II binding assay
# condition context: signal of test peptide as percentage of allele-specific positive control peptide, fluorescence, conformation-specific monoclonal antibody

# sequence text, Binding Score, %
data = [
    ("TRYLRIHPQSWVHQI [synthetic wild type FVIII 15 mer peptide]", 8.2),
    ("TKSDPRCLTRYYSSF [synthetic wild type FVIII 15 mer peptide]", 0.8),
    ("HKMVYEDTLTLFPFS [synthetic wild type FVIII 15 mer peptide]", 24.2),
    ("SRPYNIYPHGITDVR [synthetic wild type FVIII 15 mer peptide, region of ns-SNP R484H]", 0.2),
    ("PPLLTRYLRIHPQSW [synthetic wild type FVIII 15 mer peptide]", 9.6),
    ("YSLDGKKWQTYRGNS [synthetic wild type FVIII 15 mer peptide]", 0.9),
    ("PRCLTRYYSSFVNME [synthetic wild type FVIII 15 mer peptide]", 9.6),
    ("AHRTPMPKIQNVSSS [synthetic wild type FVIII 15 mer peptide, region of ns-SNP R776G]", 1.3),
]

* * *

Below, each of the sequences is paired with its reported Binding Score value.
# target system: MHC-II DRB1*03:01 (Homo sapiens, UniProt P01903+P01911, A100K/A102G/A103R/A169T/F55Y/I96L/K41T/L162R/M171V/P40S/Q125H/Q178H/Q39Y/R42S/S66N/T106N/T262R/W38E/Y61H)
# Sequence (P01903 26-254 limits assumed, other chains not shown): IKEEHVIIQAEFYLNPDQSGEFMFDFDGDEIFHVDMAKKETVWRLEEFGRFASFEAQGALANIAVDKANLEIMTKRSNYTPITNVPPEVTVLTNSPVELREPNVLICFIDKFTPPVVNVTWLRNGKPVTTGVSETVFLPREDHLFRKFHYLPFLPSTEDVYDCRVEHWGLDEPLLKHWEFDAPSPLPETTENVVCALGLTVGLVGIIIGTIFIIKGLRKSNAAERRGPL
# experiment notes: Cell-free REVEAL class II binding assay
# condition context: signal of test peptide as percentage of allele-specific positive control peptide, fluorescence, conformation-specific monoclonal antibody
recorded metric: Binding Score (%)

# sequence text, result
records = [
    ("DVRPLYSRRLPKGVK [synthetic wild type FVIII 15 mer peptide, region of ns-SNP R484H]", 0.1),
    ("SRPYNIYPHGITDVR [synthetic wild type FVIII 15 mer peptide, region of ns-SNP R484H]", 0.1),
    ("AWRPQVNNPKEWLQV [synthetic wild type FVIII 15 mer peptide]", 0.0),
    ("NNPKEWLQVDFQKTM [synthetic wild type FVIII 15 mer peptide, region of ns-SNP M2238V]", 12.6),
]

* * *

# target system: MHC-II DRB1*11:01 (Homo sapiens, UniProt P01903+P01911, A100R/A169T/A87E/I96F/K41T/L162R/M171V/P40S/Q125H/Q178H/Q39Y/Q99D/R42S/S66Y/T262R/V115G/W38E)
# Sequence (P01903 26-254 limits assumed, other chains not shown): as above
# experiment notes: Cell-free REVEAL class II binding assay
# condition context: signal of test peptide as percentage of allele-specific positive control peptide, fluorescence, conformation-specific monoclonal antibody
Label key: 1 means Binding Score under 10%; -1 means Binding Score of 10% or more.

# sequence text, discrete label
records = [
    ("LSTRQNVEGSYDGAY [synthetic wild type FVIII 15 mer peptide, region of ns-SNP D1241E]", 1),
    ("PQVNNPKEWLQVDFQ [synthetic wild type FVIII 15 mer peptide]", 1),
    ("DVRPLYSRRLPKGVK [synthetic wild type FVIII 15 mer peptide, region of ns-SNP R484H]", -1),
    ("RQNVEGSYDGAYAPV [synthetic wild type FVIII 15 mer peptide, region of ns-SNP D1241E]", 1),
    ("PLLTRYLRIHPQSWV [synthetic wild type FVIII 15 mer peptide]", -1),
    ("HKMVYEDTLTLFPFS [synthetic wild type FVIII 15 mer peptide]", 1),
    ("TVEDGPTKSDPRCLT [synthetic wild type FVIII 15 mer peptide]", 1),
    ("NNPKEWLQVDFQKTM [synthetic wild type FVIII 15 mer peptide, region of ns-SNP M2238V]", 1),
    ("YNIYPHGITDVRPLY [synthetic wild type FVIII 15 mer peptide, region of ns-SNP R484H]", -1),
    ("QKTMKVTGVTTQGVK [synthetic wild type FVIII 15 mer peptide, region of ns-SNP M2238V]", 1),
    ("ASEGAEYDDQTSQRE [synthetic wild type FVIII 15 mer peptide]", 1),
    ("SGYTFKHKMVYEDTL [synthetic wild type FVIII 15 mer peptide]", -1),
    ("IIMYSLDGKKWQTYR [synthetic wild type FVIII 15 mer peptide]", -1),
    ("MKVTGVTTQGVKSLL [synthetic wild type FVIII 15 mer peptide, region of ns-SNP M2238V]", 1),
    ("YIRLHPTHYSIRSTL [synthetic wild type FVIII 15 mer peptide]", -1),
    ("SDPRCLTRYYSSFVN [synthetic wild type FVIII 15 mer peptide]", 1),
    ("FSSLYISQFIIMYSL [synthetic wild type FVIII 15 mer peptide]", 1),
    ("KMVYEDTLTLFPFSG [synthetic wild type FVIII 15 mer peptide]", -1),
    ("SYDGAYAPVLQDFRS [synthetic wild type FVIII 15 mer peptide, region of ns-SNP D1241E]", 1),
    ("GITDVRPLYSRRLPK [synthetic wild type FVIII 15 mer peptide, region of ns-SNP R484H]", -1),
    ("SQFIIMYSLDGKKWQ [synthetic wild type FVIII 15 mer peptide]", -1),
    ("PIIARYIRLHPTHYS [synthetic wild type FVIII 15 mer peptide]", -1),
    ("PWFAHRTPMPKIQNV [synthetic wild type FVIII 15 mer peptide, region of ns-SNP R776G]", 1),
    ("RSNAWRPQVNNPKEW [synthetic wild type FVIII 15 mer peptide]", 1),
    ("PPLLTRYLRIHPQSW [synthetic wild type FVIII 15 mer peptide]", -1),
    ("DIEKTDPWFAHRTPM [synthetic wild type FVIII 15 mer peptide, region of ns-SNP R776G]", 1),
    ("PRCLTRYYSSFVNME [synthetic wild type FVIII 15 mer peptide]", -1),
    ("RIHPQSWVHQIALRM [synthetic wild type FVIII 15 mer peptide]", -1),
    ("IARYIRLHPTHYSIR [synthetic wild type FVIII 15 mer peptide]", -1),
    ("TKSDPRCLTRYYSSF [synthetic wild type FVIII 15 mer peptide]", -1),
    ("NPPIIARYIRLHPTH [synthetic wild type FVIII 15 mer peptide]", -1),
    ("YSLDGKKWQTYRGNS [synthetic wild type FVIII 15 mer peptide]", -1),
    ("TRYLRIHPQSWVHQI [synthetic wild type FVIII 15 mer peptide]", -1),
]

* * *

# target system: MHC-II DRB1*15:03 (Homo sapiens, UniProt P01903+P01911, Y59H)
# Construct: purchased ProImmune
# Sequence (P01903 26-254, other chains not shown): as the sequence (P01903 26-254 limits assumed, other chains not shown) above
# experiment notes: Cell-free REVEAL class II binding assay
# condition context: signal of test peptide as percentage of allele-specific positive control peptide, fluorescence, conformation-specific monoclonal antibody
Below, each of the sequences is paired with its reported Binding Score value.

# sequence text, Binding Score (%)
data = [
    ("TKSDPRCLTRYYSSF [synthetic wild type FVIII 15 mer peptide]", 26.8),
    ("SLHAVGVSYWKASEG [synthetic wild type FVIII 15 mer peptide]", 0.7),
    ("RQNVEGSYDGAYAPV [synthetic wild type FVIII 15 mer peptide, region of ns-SNP D1241E]", 0.0),
    ("PIIARYIRLHPTHYS [synthetic wild type FVIII 15 mer peptide]", 11.1),
    ("LFLLSTRQNVEGSYD [synthetic wild type FVIII 15 mer peptide, region of ns-SNP D1241E]", 0.2),
    ("TVEDGPTKSDPRCLT [synthetic wild type FVIII 15 mer peptide]", 0.0),
    ("PKEWLQVDFQKTMKV [synthetic wild type FVIII 15 mer peptide, region of ns-SNP M2238V]", 0.0),
    ("IFNPPIIARYIRLHP [synthetic wild type FVIII 15 mer peptide]", 3.8),
]

* * *

Below, each of the sequences is paired with its reported Stability Index value.
# target system: MHC-II DRB1*07:01 (Homo sapiens, UniProt P01903+P01911, A100R/A102G/A103Q/D57E/D86V/E43K/F76Y/K127E/L162R/M171V/P40G/Q125H/Q99D/R33Q/R42Y/R54Q/S133A/S66F/T210M/V115G/Y107V/Y59L/Y89S)
# experiment notes: Cell-free REVEAL class II stability assay
# condition context: half-life of peptide-MHC-II complex (h, capped at 120) x Binding Score / 100, conformational ELISA

# sequence text, Stability Index
rows = [
    ("TRYLRIHPQSWVHQI [synthetic wild type FVIII 15 mer peptide]", 40.8),
    ("MKVTGVTTQGVKSLL [synthetic wild type FVIII 15 mer peptide, region of ns-SNP M2238V]", 0.0),
    ("GITDVRPLYSRRLPK [synthetic wild type FVIII 15 mer peptide, region of ns-SNP R484H]", 0.6),
    ("PKEWLQVDFQKTMKV [synthetic wild type FVIII 15 mer peptide, region of ns-SNP M2238V]", 0.0),
    ("YNIYPHGITDVRPLY [synthetic wild type FVIII 15 mer peptide, region of ns-SNP R484H]", 0.1),
    ("HKMVYEDTLTLFPFS [synthetic wild type FVIII 15 mer peptide]", 0.0),
    ("AWRPQVNNPKEWLQV [synthetic wild type FVIII 15 mer peptide]", 0.0),
    ("TKSDPRCLTRYYSSF [synthetic wild type FVIII 15 mer peptide]", 0.0),
]
